- Test system: A498 renal
- measurement-notes: NCI-60 one-dose screen, 48 h
- condition-description: 10 µM unless noted
About 83,000 compounds went through this panel and 20% of them were active in at least one assay; those are over-represented in the sample as a whole. Calls of active or inactive are those of the source. The calls were made as follows: active = growth percent below 10; inactive = the rest.
In this exercise, the only acceptable responses are Yes = active, No = inactive

Take a look at these entries with their results.
compound	assay-target	class-label
CCN1C(=O)CC(=O)N(CC)C1=S	A498 renal	No
CCCn1cc2c3c(cccc31)[C@H]1C[C@@H](C)CN(C)[C@@H]1C2	A498 renal	No
Cc1ccccc1-n1c(/C=C\c2ccccn2)nc2ccccc2c1=O	A498 renal	No
Cc1ccc(N2CCN(CCC#N)CC2)cc1	A498 renal	No
Cc1cc2c(cc1-c1ccnc(/C=C/C(=O)O)c1)C(C)(C)CCC2(C)C	A498 renal	No
Oc1cc(Cl)ccc1Oc1ccc(Cl)cc1Cl	A498 renal	No
O=c1c2ccccc2nc(-c2ccccc2Cl)n1-c1nnc(C(F)(F)F)s1	A498 renal	Yes
Cc1nc2ccccc2c(=O)n1-c1ccccc1F	A498 renal	No

[Q] Dear colleague, could you share the recorded outcome for N#CCc1ccc(CC#N)cc1 when you have a moment?
[A] No

[Q] Please share the test call associated with CCOC(=O)P(=O)(OCC)OCC .
[A] No

[Q] What outcome does the record of this test show for COc1ccc2c(c1)c(-c1nc(-c3c[nH]c4ncccc34)cs1)cn2CCCCN1CCOCC1 ?
[A] No

* * *

- Test system: RXF 393 renal
- measurement-notes: NCI-60 one-dose screen, 48 h
- condition-description: 10 µM unless noted
This is part of a sample that, as a whole, favours compounds with a hit. Of some 83,000 tested, about 20% had one in any assay. Active and inactive are the calls of the source. How the source made its calls: active means growth percent below 10; inactive means the rest.
Assign a class; possible classes are 1 (active), -1 (inactive)

compound	assay-target	class-label
CC[C@H](C)[C@H](NC(=O)c1ncccn1)C(=O)N(C)[C@H](C[C@@H](OC(C)=O)c1nc(C(=O)N[C@@H](Cc2ccccc2)C[C@H](C)C(=O)OC)cs1)C(C)C	RXF 393 renal	1
C[C@]12CC[C@H]3[C@@H](CC=C4c5nc(N)sc5CC[C@@]43C)[C@@H]1CC[C@@H]2O	RXF 393 renal	-1
O=NN1CCCCC1	RXF 393 renal	-1
CC[C@H](C)[C@H](NC(=O)C12CC(NC)(C1)C2)C(=O)N(C)[C@H](C[C@@H](OC(C)=O)c1nc(C(=O)N[C@@H](Cc2ccccc2)C[C@H](C)C(=O)OC)cs1)C(C)C	RXF 393 renal	-1
CC(C)CCC1C(=O)NC(=O)NC1=O	RXF 393 renal	-1

[Q] Hi team, can someone confirm the assay call for Cc1nnc([S-])o1.[Au+].c1ccc([PH+](c2ccccc2)c2ccccc2)cc1 ?
[A] 1

[Q] Which result was noted for this compound in the test: O=C(Cc1ccccc1)NC(O)C(Cl)(Cl)Cl (stereo not given)
[A] -1

[Q] # outcome recorded in this test, key = C[C@H](O)CCC(=O)c1ccoc1
[A] -1

[Q] Assay outcome for N#CCc1ccc(CC#N)cc1 : what was it?
[A] -1

[Q] Record request — test call for OCCNC1CCCCC1
[A] -1

[Q] Returns: the outcome recorded for COc1ccc2c(c1)c(-c1nc(-c3cn(C)c4ncccc34)cs1)cn2CCCCN1CCOCC1 in this assay.
[A] 1

* * *

- Tested on: NCI-H522 lung
- measurement-notes: NCI-60 one-dose screen, 48 h
- condition-description: 10 µM unless noted
The panel holds about 83,000 compounds, 20% with a hit somewhere; the sample as a whole holds those more often. Activity calls are given as the source filed them. Rule for the calls: active = growth percent below 10; inactive = the rest.
Answer with one of the outcomes label 1 for active, label 0 for inactive

For orientation, consider the following solved cases.
compound	class-label
O=C1CCCCC1CN1CCCCC1 (stereo not given)	label 0
O=C(NC(Cl)=C(Cl)Cl)P(=O)(c1ccccc1)c1ccccc1	label 0
COc1ccc2c(c1)c(-c1nc(-c3c[nH]c4ncccc34)cs1)cn2CCCCN1CCOCC1	label 0
CC[C@H](C)[C@H](NC(=O)CN(C)C)C(=O)N(C)[C@H](C[C@@H](OC(C)=O)c1nc(C(=O)NC23C4C5C2C2C3C4C52C(=O)OC)cs1)C(C)C (stereo not given in full)	label 0
N[C@@H](CCC(=O)CCl)C(=O)O	label 0
COc1cc(C2C3=C(CCCC3=O)N(CCO)c3cc4c(cc32)CCC4)cc(OC)c1OC (stereo not given)	label 0
COc1ccn(C)c(=O)c1C#N	label 0
COc1cc(/C=C\[N+](=O)[O-])ccc1OCc1ccccc1	label 0

[Q] Per the records of this test, what outcome belongs to C[N+]1(CC#CC[N+]2(C)CCCC2)CCCC1 ?
[A] label 0

[Q] Per the assay record, what outcome was assigned to O=[N+]([O-])c1ccc(P(=O)(O)O)cc1 ?
[A] label 0

[Q] Assay outcome for O=P1(N(CCCl)CCCl)NCCCO1 (stereo not given) : what was it?
[A] label 0

[Q] Record request — test call for CCC(Br)(CC)C(=O)NC(N)=O
[A] label 0

[Q] Kindly provide the recorded test outcome for the following compound: Cc1cc(N)ccc1N
[A] label 0

[Q] # lookup: test call for CC[C@H](C)[C@H](NC(=O)[C@H]1CCCCN1C)C(=O)N(C)[C@H](C[C@@H](OC(C)=O)c1nc(C(=O)N[C@@H](Cc2ccccc2)C[C@H](C)C(=O)O)cs1)C(C)C
[A] label 1

[Q] Lab log entry: C[C@]12CCc3sc(Nc4ccc(F)cc4F)nc3C1=CC[C@@H]1[C@@H]2CC[C@]2(C)C(=O)CC[C@@H]12 — outcome as called in the assay?
[A] label 0

[Q] Query: recorded result category for C/C(=C\c1ccn(-c2ccc(N)c(C(F)(F)F)c2)n1)[C@@H]1C[C@@H]2O[C@]2(C)CCC[C@H](C)[C@H](O)[C@@H](C)C(=O)C(C)(C)[C@@H](O)CC(=O)O1 in this test
[A] label 0

[Q] Can you look up the reported call for CO[C@H]1[C@H](O[C@@H]2C[C@@H]3C/C=C/C(=O)O[C@@H](CO)C[C@H](O)[C@@H]4C[C@H](C)[C@H](C/C=C\C=C\[C@H](C)C[C@H](C2)O3)O4)O[C@@H](C)[C@H](O)[C@H]1O for me?
[A] label 0

[Q] How was ClCc1ccc(Cl)c(Cl)c1 classified in this test?
[A] label 0

[Q] For Nc1nc(=S)nc(N)[nH]1 , what call appears in the results of this test?
[A] label 0

[Q] Tell me the recorded outcome of this test for Oc1cc(N2CC2)c(O)cc1N1CC1 .
[A] label 1

* * *

Measured growth values are reported for all entries that follow.
- Test system: HOP-62 NSCLC
- measurement-notes: NCI-60 one-dose screen, 48 h (100 = growth as untreated, 0 = no growth, -100 = all killed)
- condition-description: 10 µM unless noted
This is part of a sample that, as a whole, favours compounds with a hit. Of some 83,000 tested, about 20% had one in any assay.
Express the result in % but write the number alone.

> print(dat)
                                   compound  assay.target  metric  recorded.number
1  CN1C2CCC1[C@@H](COC(=O)c1ccccc1)[C@@H](O)C2 (stereo not given in full)  HOP-62 NSCLC  growth             99.7
2                               O=C(O)C(F)F  HOP-62 NSCLC  growth             86.9

[Q] Which measured growth belongs to NC(=O)Oc1cc(OC(N)=O)cc(N(CCCl)CCCl)c1 , tested on HOP-62 NSCLC?
[A] 58.5

[Q] Form field: growth recorded for Oc1ccccc1C=NCCN=Cc1ccccc1O.[Fe] with HOP-62 NSCLC (enter value)
[A] 74.9

[Q] What growth appears in the records for this compound with HOP-62 NSCLC? CCCCn1c(=O)c(C(=O)NCc2ccccc2Cl)c(O)c2ccccc21
[A] 76.9

[Q] Item: CCCC(C)SP(=S)(SC(C)CCC)SC(C)CCC (stereo not given) Test system: HOP-62 NSCLC Read-out: growth Value: ?
[A] 101

[Q] Requested read-out growth, target or system HOP-62 NSCLC, entry Cc1cc(N(CCCl)CCCl)ccc1C=Nc1ccc(-c2csc(-c3ccccc3)n2)cc1
[A] 79.3

[Q] Give the reported growth for CC(=O)c1cccc(S(=O)(=O)F)c1 (system: HOP-62 NSCLC).
[A] 98.4

* * *

- System: UO-31 renal
- measurement-notes: NCI-60 one-dose screen, 48 h
- condition-description: 10 µM unless noted
About 83,000 compounds went through this panel and 20% of them were active in at least one assay; those are over-represented in the sample as a whole. Calls of active or inactive are those of the source. How the source made its calls: active means growth percent below 10; inactive means the rest.
Please answer using one outcome listed in true (active), false (inactive)

Solved cases below.
molecule	assay-target	class-label
CC1=CC(=Nc2ccc(N(CCCl)CCCl)cc2)C=C(C)C1=O	UO-31 renal	true
CN(C)c1ccc(N)cc1	UO-31 renal	false
Cc1cc(N)ccc1N	UO-31 renal	false
CC(=O)Cc1ccc2c(c1)OCO2	UO-31 renal	false
O=C(O)C(F)F	UO-31 renal	false

[Q] Field: outcome | Entry: CO[C@@H]([CH2][Hg][O]C(=O)c1ccccc1)[C@@H]([CH2][Hg][O]C(=O)c1ccccc1)OC
[A] false

[Q] Hi, do you know how COc1ccn(C)c(=O)c1C#N came out in this test?
[A] false

[Q] So what was the verdict on CSc1cc(/C=C(\C)[C@@H]2C[C@@H]3O[C@]3(C)CCC[C@H](C)[C@H](O)[C@@H](C)C(=O)C(C)(C)[C@@H](O)CC(=O)O2)n(CCNC(=O)OC(C)(C)C)n1 in this test?
[A] false

[Q] Record lookup: outcome of this test for [N-]=[N+]=CC(=O)CCC(=O)C=[N+]=[N-] ?
[A] false

[Q] How was CCCN1C(=O)NC(=O)C(CC)(N2C(=O)c3c(F)c(F)c(F)c(F)c3C2=O)C1=O (stereo unspecified) classified in this test?
[A] true

[Q] Assay outcome for CC[C@H](C)[C@H](NC(=O)C12CC(NC)(C1)C2)C(=O)N(C)[C@H](C[C@@H](OC(C)=O)c1nc(C(=O)N[C@@H](Cc2ccccc2)C[C@H](C)C(=O)OC)cs1)C(C)C : what was it?
[A] false
